The measurements presented in this section are drawn from patent US9079888B2.

# method-summary: Rodent Pharmacokinetic Study
# study-conditions: male, Wistar, rat, whole blood, po, 10 mg/kg
property: Tmax

So for Cc1cc(OC2CCN(C3CCC3)CC2)ccc1NC(=O)CN1CCCC1 [Example 11] , the logged Tmax turned out to be 4 h

----------
Give measured Ki for each item. Keep answers brief.
# system-under-test: Human or Rat Histamine H3 Receptor
# method-summary: Binding assay for human or rat Histamine H3 receptor ([3H] R-α-methylhistamine displacement)
# study-conditions: radioligand [3H] R-α-methylhistamine 3.0 nM; receptor source rat brain frontal cortex or recombinant human cDNA in CHO cells (table does not say which)
Write the numeric value and append its unit.

Looking up Cc1cc(OC2CCN(C3CCC3)CC2)ccc1NC(=O)CN1CCC[C@H]1C [Example 16] , I see its Ki listed as 2.4 nM

The recorded Ki for entry O=C(CN1CCOC(CO)C1)Nc1ccc(OC2CCN(C3CCC3)CC2)cc1 (stereo not drawn) [Example 25] equals 4.05 nM

Record Cc1cc(OC2CCN(C3CCCC3)CC2)ccc1NC(=O)CN1CCCCC1 [Example 12] , field Ki: 7.5 nM
